Sourced from patent US6608058B2

Reported inhibition at 0.1 µg/mL is given for each of the following compounds.
molecular target: HIV reverse transcriptase (Human immunodeficiency virus type 1 group M subtype B, UniProt P04585); construct: purchased Boehringer Mannheim; test: Inhibitory effect on the in vitro HIV reverse transcriptase activity (non-radioactive RT assay kit); assay type: biochemical; settings: 0.1 μg/ml
The answer is to be given in %; state only the numeric part.

Example results:
# SUBSTANCE_SMILES, inhibition at 0.1 µg/mL (%)
rows = [
    ("Cc1ccc(C(=O)NCc2cccnc2)c(Nc2ccc3[nH]ncc3c2)n1", 38),
    ("Cc1ccc(C(=O)NCCN2CCCCC2)c(Nc2ccc3cn[nH]c3c2)n1", 43),
    ("Cc1ccc(C(=O)NC2CC2)c(Nc2ccc3cn[nH]c3c2)n1", 45),
]

input: Fill blank: measured inhibition at 0.1 µg/mL of the compound Cc1ccc(C(=O)NCCCn2ccnc2)c(Nc2ccc3cn[nH]c3c2)n1 is ____.
output: 47

input: Fill blank: measured inhibition at 0.1 µg/mL of the compound Cc1ccc(C(=O)NN2CCOCC2)c(Nc2ccc3[nH]ncc3c2)n1 is ____.
output: 49

input: Fill blank: measured inhibition at 0.1 µg/mL of the compound Cc1ccc(C(=O)NC(C)C)c(Nc2ccc3cn[nH]c3c2)n1 is ____.
output: 28

input: Fill blank: measured inhibition at 0.1 µg/mL of the compound Cc1ccc(C(=O)NC(C)C)c(Nc2ccc3[nH]ncc3c2)n1 is ____.
output: 42

input: Fill blank: measured inhibition at 0.1 µg/mL of the compound Cc1ccc(C(=O)NCCN2CCOCC2)c(Nc2ccc3cn[nH]c3c2)n1 is ____.
output: 41

input: Fill blank: measured inhibition at 0.1 µg/mL of the compound Cc1ccc(C(=O)Nc2cccnc2)c(Nc2ccc3[nH]ncc3c2)n1 is ____.
output: 40

input: Fill blank: measured inhibition at 0.1 µg/mL of the compound Cc1ccc(C(=O)NCCc2ccccn2)c(Nc2ccc3[nH]ncc3c2)n1 is ____.
output: 45

input: Fill blank: measured inhibition at 0.1 µg/mL of the compound Cc1ccc(C(=O)N[C@H]2CC[C@H](O)CC2)c(Nc2ccc3[nH]ncc3c2)n1 is ____.
output: 51

input: Fill blank: measured inhibition at 0.1 µg/mL of the compound Cc1ccc(C(=O)N(N)c2ccccn2)c(Nc2ccc3cn[nH]c3c2)n1 is ____.
output: 49

input: Fill blank: measured inhibition at 0.1 µg/mL of the compound Cc1ccc(C(=O)NN2CCN(C)CC2)c(Nc2ccc3cn[nH]c3c2)n1 is ____.
output: 50
